Biological target: hSMOX (Homo sapiens)
Construct: 6xHis (N); TEV cleavage site (N); made in house; host or cells: E. coli BL21(D3), plasmid PET28b(+)
Sequence (Q9NWM0 whole entry): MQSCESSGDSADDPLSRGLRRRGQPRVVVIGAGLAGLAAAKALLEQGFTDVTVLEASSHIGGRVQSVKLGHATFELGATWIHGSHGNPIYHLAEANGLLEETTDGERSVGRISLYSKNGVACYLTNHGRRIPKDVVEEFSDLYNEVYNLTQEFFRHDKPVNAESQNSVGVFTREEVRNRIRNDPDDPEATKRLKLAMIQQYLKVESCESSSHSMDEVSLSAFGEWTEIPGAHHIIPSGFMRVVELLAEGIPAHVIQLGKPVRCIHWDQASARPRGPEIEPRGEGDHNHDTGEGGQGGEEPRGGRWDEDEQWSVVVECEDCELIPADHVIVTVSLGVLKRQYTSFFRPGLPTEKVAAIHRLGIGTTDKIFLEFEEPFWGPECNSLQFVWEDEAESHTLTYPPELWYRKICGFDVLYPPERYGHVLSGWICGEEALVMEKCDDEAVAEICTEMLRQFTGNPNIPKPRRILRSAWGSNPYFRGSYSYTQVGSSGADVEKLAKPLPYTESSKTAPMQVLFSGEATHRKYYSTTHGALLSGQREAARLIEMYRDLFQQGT
Assay: hSMOX HyPerBlu chemiluminescent enzyme activity assay (H2O2 detection, Spm substrate)
Format: biochemical
Settings: IC50 hSMOX, 4 h (240 min) enzyme-inhibitor preincubation, 4 h preincubation, 30 µM Spm
Quantity: IC50 (nM)
One number for each entry, in nM.

Challenge: Tell me its IC50 given Oc1ccc(Nc2nc(-c3cnc4ccccn34)cs2)cc1 as the entry.
Response given: 3.2
